- Subject Of Test: human ether-à-go-go-related gene (hERG) potassium channel (human)
- Sequence (Q12809 whole entry, looked up): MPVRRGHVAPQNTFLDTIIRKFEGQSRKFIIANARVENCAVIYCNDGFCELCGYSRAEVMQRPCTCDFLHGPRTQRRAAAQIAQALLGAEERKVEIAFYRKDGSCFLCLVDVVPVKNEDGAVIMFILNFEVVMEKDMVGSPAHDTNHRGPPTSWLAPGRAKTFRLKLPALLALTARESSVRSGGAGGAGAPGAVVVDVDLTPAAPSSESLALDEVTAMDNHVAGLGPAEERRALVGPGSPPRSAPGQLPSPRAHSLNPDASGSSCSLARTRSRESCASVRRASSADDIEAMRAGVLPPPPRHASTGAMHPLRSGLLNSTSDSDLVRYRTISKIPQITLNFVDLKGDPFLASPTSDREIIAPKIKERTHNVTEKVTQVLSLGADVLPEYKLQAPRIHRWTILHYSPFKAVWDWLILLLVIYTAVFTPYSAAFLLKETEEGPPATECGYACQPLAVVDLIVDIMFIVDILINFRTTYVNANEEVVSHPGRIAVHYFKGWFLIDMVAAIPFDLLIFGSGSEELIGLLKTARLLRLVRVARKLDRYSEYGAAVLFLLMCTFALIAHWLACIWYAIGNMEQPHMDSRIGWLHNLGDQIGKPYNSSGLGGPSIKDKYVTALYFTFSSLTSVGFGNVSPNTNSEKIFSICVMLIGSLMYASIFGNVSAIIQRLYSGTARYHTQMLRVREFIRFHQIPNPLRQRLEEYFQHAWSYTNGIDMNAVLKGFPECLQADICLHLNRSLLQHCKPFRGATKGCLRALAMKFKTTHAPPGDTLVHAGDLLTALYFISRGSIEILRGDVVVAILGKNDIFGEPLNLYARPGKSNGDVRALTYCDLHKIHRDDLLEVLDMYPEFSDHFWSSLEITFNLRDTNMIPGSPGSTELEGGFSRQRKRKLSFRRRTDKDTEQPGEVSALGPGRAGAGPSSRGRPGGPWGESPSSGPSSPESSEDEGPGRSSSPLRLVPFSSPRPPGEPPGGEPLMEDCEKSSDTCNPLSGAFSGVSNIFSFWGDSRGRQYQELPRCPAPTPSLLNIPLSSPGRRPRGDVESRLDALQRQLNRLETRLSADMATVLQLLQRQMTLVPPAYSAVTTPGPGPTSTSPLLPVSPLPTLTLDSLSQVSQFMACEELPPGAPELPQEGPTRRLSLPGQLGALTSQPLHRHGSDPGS
- Assay: primary screen, population patch clamp on CHO cells stably expressing hERG; higher = less effect of the substance;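 further: peak tail current of the secondary pulse compared with the same well before compound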
About 14,000 (4.5%) of roughly 310,000 compounds showed an effect of 50% or more. The effect is printed as a negative number. Only a selection was taken, and strong results are over-represented in it overall.
Measure Name: hERG current change (%, negative = inhibition) at 10uM (%)
Give the quantity in %, number only.

INSERT INTO results (molecule, result) VALUES
  ('O=C(CCn1cccn1)Nc1ccc(-c2ccno2)cc1', 14.4),
  ('COc1cccc(COc2ccc3c(C)c(Cc4ccccc4)c(=O)oc3c2)c1', 6.98),
  ('O=C(NCCC(=O)N(CCc1ccccc1)Cc1ccccc1)c1ccc(Br)cc1', -44.9),
  ('O=C(NCCc1ccccc1)c1ccccc1Cl', 3.33),
  ('Cc1ccc(S(=O)(=O)CC(=O)N2CCCCCC2)cc1', 13.6);

Read off the recorded hERG current change (%, negative = inhibition) at 10uM for "O=C(CSc1nnc(-c2ccc(O)cc2)n1Cc1ccco1)c1cccs1"
-14.9

Read off the recorded hERG current change (%, negative = inhibition) at 10uM for CC(=O)N1N=C(c2cccs2)CC1c1ccc(C)o1 (centres unmarked)
7.07

Read off the recorded hERG current change (%, negative = inhibition) at 10uM for "C/C(=N\OCC(=O)O)c1ccc(Cl)cc1"
13.5

Read off the recorded hERG current change (%, negative = inhibition) at 10uM for "CCNC(=S)Nc1ccc(Cc2ccncc2)cc1"
-4.01

Read off the recorded hERG current change (%, negative = inhibition) at 10uM for "O=C(NCCC(=O)N(CCc1ccccc1)Cc1ccccc1)c1ccccc1Cl"
-72.9

Read off the recorded hERG current change (%, negative = inhibition) at 10uM for "CC(C)=NN/C(N)=N/C(=S)Nc1ccc(C)cc1"
-3.24

Origin of measurements: paper PMC4336329
